- target: T1, recombinant cynomolgus CFD, His-tagged (cynomolgus)
- T1 construct: also called rcyCFD-His; recombinant Cyno-CFD
- assayProcedure: SPR MX96
// pKd lookup, one value per entry
Note on units: pKd is unitless, being -log10 of a concentration expressed in mol/L.

Recorded results for 4 binders are shown here.
binder	reportedResult
KCD125 (antibody, V domains shown) VH: EVQLQQSGAELVRPGSSVKMSCKTSGNTFTSYGINWVKQRPGQGLEWIGYIYIGTGYTEYNEKFKGKATLTSDTSSSTAYMQLSSLTSEDSAIYFCVRKAYGNYGFDYWGQGTTLTVSS VL: DIQMTQSPSSLSASLGERVSLTCRASQEISGYLSWLQQKPDGTIKRLIYAASTLDSGVPKRFSGSRSGSDYSLTISSLESEDFADYYCLQYASYPFTFGSGTKLEIK	8.39
KCD137 (antibody, V domains shown) VH: EVQLVESGGDLVKPGGSLKLSCAASGFTFSGYGMSWVRQIPDKRLEWVAISSRDNSFTYYPDSVKGRFTISRDNAKNTLYLQMSSLKSEDTALYFCTRHPYLPTGGYVMDYWGQGTSVTVSS VL: DIVMTQSHKFMSTSVGDRVSITCKASQDVGTAVAWYQQRPGQSPKLLIYWASTRHTGVPDRFTGSGSGTDFTLTVSNVQSEDLADYFCQQYTSYPLTFGAGTKLELK	8.23
KCD042 (antibody, V domains shown, chimeric) VH: EVQLQQSGAELVKPGASVRLSCTASGFNIKHTYIHWVSQRPEQGLEWIGKIDPANGNTKYDPKFQGKATITADTSSNTAYLQLSSLTSEDTAVYYCVNAMEYWGQGTSVTVSS VL: QSVLTQSPAIMSASPGEKVTMTCSANSSVSDMYWFQQRPGSSPRLLIYDTSNLASGVPVRFSGSGSGTSYSLTISRMEAEDAATYYCQQWSTYPWTFGGGTKLEIK	8.52
KCD208 (antibody, V domains shown, chimeric) VH: EVQLQQSVAELVRPGASVKLSCTVSGFNIKNTYMHWVKQRPEQGLEWIGRIDPANGDTTYAPKFQGKATITADTSSNSAYLHLSRLTSEDTAIYYCSLYDYDGYWGQGTTLTVSS VL: EIVLTQSPALMAASPGEKVTITCSVSSSISSSSLHWYRQKSGTSPKPWIYGTSHLASGVPVRFSGSGSGTSYSLTISSMEAEDAATYYCQQWDTYPWTFGGGTKLEIK	7.28

Continue with the next binder.
# lookup: pKd of KCD136 (antibody, V domains shown, chimeric) VH: EVQLQQSVAELVRPGASVKLSCSASGFNIKNTYMHWVNQRPEQGLEWIGRIDPANGITKYAPNFQGKATITADTSSNTAYLQLSNLTSEDTAIYYCTRAMDYWGQGTSVTVSS VL: QIVLTQSPAIMSASPGEKVTMTCSASSSVSYMYWYQQKPGSSPRLLIYDISNLASGVPVRFSGSGSGTSYSLTISRMEAEDAATYYCQQWDTYPWTFGGGTKLEIK
7.57
